Test system: SEM cells
experiment: cell viability relative to DMSO control; higher = less cytotoxic
reported-conditions: RPMI 5 mM glucose + 10% FBS; 48 h; 46.1 µM
cell viability vs 60%: less than gives y; not less than gives n.

input: Confirm or reject: cell viability of `Nc1cc(N2CCCCC2)nc(N)[n+]1[O-]` lies strictly below 60%
output: n

input: Confirm or reject: cell viability of OC1CCC(CC1)N2\C=N/C3=C(C2=N)C(=C([N]3CC4=CC=CC=C4)C5=CC=CC=C5)C6=CC=CC=C6 (stereo not given) lies strictly below 60%
output: y

input: Confirm or reject: cell viability of `CCOC(=O)c1c(CSc2ccccc2)n(C)c2cc(Br)c(O)c(CN(C)C)c12` lies strictly below 60%
output: n

input: Confirm or reject: cell viability of `CC1(C)CCC(C)(C)c2cc(NC(=O)c3ccc(C(=O)O)cc3)ccc21` lies strictly below 60%
output: n

input: Confirm or reject: cell viability of `CCOc1cc(C(=O)Nc2ccc(Cl)c(-c3nc4ccccc4[nH]3)c2)cc(OCC)c1OCC` lies strictly below 60%
output: y

---

Test system: SEM cells
experiment: cell viability relative to DMSO control; higher = less cytotoxic
reported-conditions: RPMI 5 mM glucose + 10% dialyzed FBS; 48 h; 46.1 µM
recorded-endpoint: cell viability (%)
Use % as the unit, but write only the number.

input: Data request, read-out cell viability, for `Nc1cc(N2CCCCC2)nc(N)[n+]1[O-]`
output: 133

input: Data request, read-out cell viability, for `CCC(=O)N1CCN(CC1)C2=C(C=C(C=C2)N3C(=O)\C=C/C4=C3C5=CC(=CC=C5N=C4)C6=CN=C7C=CC=CC7=C6)C(F)(F)F`
output: 33.1

input: Data request, read-out cell viability, for `CC(C)[C@H](O)C(=O)N[C@@H](C)C(=O)N[C@@H]1C(=O)N(C)CCc2ccccc21`
output: 95.7

input: Data request, read-out cell viability, for `CC(C)C[C@H](CC(=O)O)C(=O)N[C@@H](Cc1c[nH]c2ccccc12)C(=O)N[C@@H](C)c1ccccc1`
output: 46.4

input: Data request, read-out cell viability, for `COc1cc(C[C@@H](CO)[C@H](CO)Cc2ccc(O)c(OC)c2)ccc1O`
output: 110

input: Data request, read-out cell viability, for `Cn1cnc(N)c2ncnc1-2`
output: 4.09

input: Data request, read-out cell viability, for `Cc1nc2ccc(CN(C)c3ccc(C(=O)N[C@@H](CCC(=O)O)C(=O)O)s3)cc2c(=O)[nH]1`
output: 30.5

input: Data request, read-out cell viability, for `Cc1cc(/C=c2/sc3nc4ccccc4n3c2=O)c(C)n1-c1ccccc1`
output: 116

input: Data request, read-out cell viability, for `CC1(C)[C@@H](O)CC[C@@]2(C)[C@H]1CC[C@]3(C)[C@@H]2C(=O)\C=C/4[C@@H]5C[C@](C)(CC[C@]5(C)CC[C@@]34C)C(O)=O`
output: 102

input: Data request, read-out cell viability, for `CN(C)c1ccc(-c2nc3c(N4CCN(CC(=O)Nc5nccs5)CC4)c(Cl)cnc3[nH]2)cc1`
output: 49.6

input: Data request, read-out cell viability, for `CN1CCC(CNc2ccc3ncc(-c4cccc(OC(F)(F)F)c4)n3n2)CC1`
output: 6.78

input: Data request, read-out cell viability, for OC[C@H]1OC(O)C[C@@H](O)[C@@H]1O (some centres undefined)
output: 119

input: Data request, read-out cell viability, for `Cc1nc(-c2ccc(-c3ccc(C(=O)N4CCc5cc6c(cc54)C4(CCN(C)CC4)CO6)cc3)c(C)c2)no1`
output: 103

input: Data request, read-out cell viability, for `O=C(Nc1cccnc1)N1CCC(Cc2cccc(Oc3ccc(C(F)(F)F)cn3)c2)CC1`
output: 8.02

input: Data request, read-out cell viability, for `O=C(Nc1nc2cccc(-c3ccc(CN4CC[S+](=O)([O-])CC4)cc3)n2n1)C1CC1`
output: 31.1

input: Data request, read-out cell viability, for CCCC[S+](=N)([O-])CCC(N)C(=O)O (centres undefined)
output: 120

input: Data request, read-out cell viability, for `O=C1\C=C(OC2=C(C=CC=C12)C3=CC=CC4=C3SC5=C4C=CC=C5)\N6CCOCC6`
output: 76

input: Data request, read-out cell viability, for COC1=CC=C(C=C1)C/2=C(OC3O[C@@H](C)[C@H](O)[C@@H](O)[C@H]3O)/C(=O)C4=C(O2)C(=C(OC5O[C@H](CO)[C@@H](O)[C@H](O)[C@H]5O)C=C4O)CC=C(C)C (some centres undefined)
output: 14.7

input: Data request, read-out cell viability, for `CCCCN1CCC(CNC(=O)c2c3n(c4ccccc24)CCCO3)CC1`
output: 79.8

input: Data request, read-out cell viability, for Clc1ccc(C(c2ccc(Cl)cc2)[n+]2ccn(CC(OCc3ccc(Cl)cc3Cl)c3ccc(Cl)cc3Cl)c2)cc1 (centres undefined)
output: 3.06

input: Data request, read-out cell viability, for CC(O)(C[S+](=O)([O-])c1ccc(F)cc1)C(=O)Nc1ccc(C#N)c(C(F)(F)F)c1 (centres undefined)
output: 55

input: Data request, read-out cell viability, for `CCC[C@H](Nc1nc(-c2ccc(NC(=O)NCC)c(OC)c2)ncc1C)c1cccnc1`
output: 4.35

input: Data request, read-out cell viability, for `COCC(=O)NC/C=C/c1ccc2ncnc(Nc3ccc(Oc4ccc(C)nc4)c(C)c3)c2c1`
output: 49

input: Data request, read-out cell viability, for `COC(=O)CCC1=C(C)C2=CC3=NC(=CC4=C(C)C(=C([NH]4)C=C\5N=C(C=C1[NH]2)\C(=C5C)CCC(O)=O)C=C)\C6=C\C=C(/[C@@H](C(=O)OC)[C@@]36C)C(=O)OC`
output: 80.4

---

Test system: NOMO1
experiment: cell viability relative to DMSO control; higher = less cytotoxic
reported-conditions: HPLM + 10% dialyzed FBS; 48 h; 0.19 µM
recorded-endpoint: cell viability (%)
Use % as the unit, but write only the number.

input: Data request, read-out cell viability, for `Cc1nnc(C(=O)NC(C)(C)c2nc(C(=O)NCc3ccc(F)cc3)c(O)c(=O)n2C)o1`
output: 103

input: Data request, read-out cell viability, for `Cc1cnc(Nc2cccc(CN3CCOCC3)c2)nc1Nc1cccc([S+](=O)([O-])NC(C)(C)C)c1`
output: 108

input: Data request, read-out cell viability, for `NC(=O)N1CCC(CC(=O)N2CCC([C@H]3c4ncc(Br)cc4CCc4cc(Cl)cc(Br)c43)CC2)CC1`
output: 110

input: Data request, read-out cell viability, for `Cc1noc(N[S+](=O)([O-])c2ccc(N)cc2)c1C`
output: 101

input: Data request, read-out cell viability, for `O=C(CCCN1CCC(O)(c2ccc(Cl)cc2)CC1)c1ccc(F)cc1`
output: 133

input: Data request, read-out cell viability, for `c1coc(CNc2ncnc3nc[nH]c23)c1`
output: 136

input: Data request, read-out cell viability, for `OC1=CC(=C(C=C1)\C2=C(O)\C(=O)C3=C(O2)C=C(O)C=C3O)O`
output: 137

input: Data request, read-out cell viability, for `CCOc1cc(C(=O)Nc2ccc(Cl)c(-c3nc4ccccc4[nH]3)c2)cc(OCC)c1OCC`
output: 108

input: Data request, read-out cell viability, for Clc1ccc(CCC(Cn2ccnc2)Sc2c(Cl)cccc2Cl)cc1 (centres undefined)
output: 90.8

---

Test system: NOMO1
experiment: cell viability relative to DMSO control; higher = less cytotoxic
reported-conditions: RPMI 5 mM glucose + 10% FBS; 48 h; 0.00702 µM
recorded-endpoint: cell viability

input: Data request, read-out cell viability, for `C[S+](=O)([O-])N1CCN(Cc2cc3nc(-c4cccc5[nH]ncc45)nc(N4CCOCC4)c3s2)CC1`
output: 116%

input: Data request, read-out cell viability, for `Nc1ncnc2nc(-c3ccc(N4CCOCC4)nc3)cc(-c3cccc(Br)c3)c12`
output: 116%

input: Data request, read-out cell viability, for `CC[C@H](C)C(=O)O[C@H]1C[C@@H](C)\C=C2\C=C/[C@H](C)[C@H](CC[C@@H]3C[C@@H](O)CC(=O)O3)[C@@H]12`
output: 89.7%

input: Data request, read-out cell viability, for `COCC(=O)NC/C=C/c1ccc2ncnc(Nc3ccc(Oc4ccc(C)nc4)c(C)c3)c2c1`
output: 107%

input: Data request, read-out cell viability, for `Cc1nnc(C(=O)NC(C)(C)c2nc(C(=O)NCc3ccc(F)cc3)c(O)c(=O)n2C)o1`
output: 96.8%

input: Data request, read-out cell viability, for `COc1cc(N2CCC(N3CCN(C)CC3)CC2)ccc1Nc1ncc(Cl)c(Nc2ccccc2[S+](=O)([O-])C(C)C)n1`
output: 125%

input: Data request, read-out cell viability, for `COc1cc2c(cc1OC)CN(CCc1ccc(NC(=O)c3cccc4c(=O)c5cccc(OC)c5[nH]c34)cc1)CC2`
output: 127%

input: Data request, read-out cell viability, for `C[C@H](NC(=O)[C@@H](O)c1cc(F)cc(F)c1)C(=O)N[C@@H]1C(=O)N(C)c2ccccc2-c2ccccc21`
output: 106%

input: Data request, read-out cell viability, for `O=C(O)c1cccnc1`
output: 121%

input: Data request, read-out cell viability, for `CCCCCN(C)CCC(O)(P(=O)([O-])O)P(=O)(O)O`
output: 89.5%

input: Data request, read-out cell viability, for `COc1ccc(/C=C/C(=O)Nc2ccccc2C(=O)O)cc1OC`
output: 108%

input: Data request, read-out cell viability, for Clc1ccc(CCC(Cn2ccnc2)Sc2c(Cl)cccc2Cl)cc1 (stereo unspecified)
output: 86.7%

input: Data request, read-out cell viability, for `CC(C)(Sc1cc(C(C)(C)C)c(O)c(C(C)(C)C)c1)Sc1cc(C(C)(C)C)c(O)c(C(C)(C)C)c1`
output: 86.2%

input: Data request, read-out cell viability, for `CC(C)[C@H]1C(=O)N[C@H](CO)Cc2c[nH]c3cccc(c23)N1C`
output: 112%

input: Data request, read-out cell viability, for `CCC(=O)N1CCN(CC1)C2=C(C=C(C=C2)N3C(=O)\C=C/C4=C3C5=CC(=CC=C5N=C4)C6=CN=C7C=CC=CC7=C6)C(F)(F)F`
output: 96.9%

input: Data request, read-out cell viability, for `C/C=C(\C)C(=O)N[C@@H](c1ccccc1)[C@@H](O)C(=O)O[C@H]1C[C@@]2(O)[C@@H](OC(=O)c3ccccc3)[C@@H]3[C@]4(OC(C)=O)CO[C@@H]4C[C@H](O)[C@@]3(C)C(=O)[C@H](OC(C)=O)C(=C1C)C2(C)C`
output: 17.4%
